- target.entity: T1, HLA-A*02:01 (human)
- T1 construct: whole, on cells; MHC class I molecule, empty until peptide is added; detected with FITC anti-HLA-A02 antibody BB7.2
- assay.method.text: MHC class I stabilization on T2-A24 cells, flow cytometry, 100 ug/mL peptide
reported.metric: MFI (solvent ratio)

For every item in the list below, what is its measured MFI (solvent ratio)?
1. GLLGGTHIDLL [FAM83B-derived peptide F114_11]
2. SMVQIITGQLV [FAM83B-derived peptide F256_11]
3. LVQERVSDFL [FAM83B-derived peptide F47_10]
4. NLDLGWPYV [FAM83B-derived peptide F103_9]
5. PFCKIESSI [FAM83B-derived peptide F939_9]
6. SYFKNRGIYTL [FAM83B-derived peptide F335_11]

Ans:
1. 2.9 ratio to solvent
2. 3.2 ratio to solvent
3. 1.1 ratio to solvent
4. 2.6 ratio to solvent
5. 0.9 ratio to solvent
6. 1 ratio to solvent

For every item in the list below, what is its measured MFI (solvent ratio)?
1. VMYGSYSYMW [FAM83B-derived peptide F239_10]
2. GWPYVMPGLL [FAM83B-derived peptide F107_10]
3. SYGRSSPLL [FAM83B-derived peptide F971_9]
4. TYQHSVSSLASV [FAM83B-derived peptide F305_12]

Ans:
1. 1.1 ratio to solvent
2. 1 ratio to solvent
3. 1.1 ratio to solvent
4. 2 ratio to solvent

For every item in the list below, what is its measured MFI (solvent ratio)?
1. LLDESNFNHFL [FAM83B-derived peptide F179_11]
2. SFNGTDNHIRF [FAM83B-derived peptide F466_11]
3. VMDIFTDVDIF [FAM83B-derived peptide F153_11]
4. TLSSGTYWPV [FAM83B-derived peptide F86_10]
5. HGLEAYQEFLV [FAM83B-derived peptide F38_11]
6. MVQIITGQLV [FAM83B-derived peptide F257_10]
7. KVIALVMDIF [FAM83B-derived peptide F148_10]

Ans:
["1.6 ratio to solvent", "1 ratio to solvent", "0.9 ratio to solvent", "3 ratio to solvent", "2.5 ratio to solvent", "1.9 ratio to solvent", "1.1 ratio to solvent"]

For every item in the list below, what is its measured MFI (solvent ratio)?
1. HYKEWYRVAI [FAM83B-derived peptide F23_10]
2. WYRVAIDILI [FAM83B-derived peptide F27_10]
3. YILKNVQKV [FAM83B-derived peptide F63_9]

Ans:
1: 2 ratio to solvent; 2: 1.2 ratio to solvent; 3: 3.3 ratio to solvent
